Hey, just so you know, these numbers are from patent US20080119513A1.

# study target: MMP-12 (Homo sapiens)
# Construct: In regard to MMP-12, catalytic domain (^100Phe˜^263Gly) was amplified with RT-PCR; His-tag; enterokinase digestion-site
# Sequence (P39900 100-263): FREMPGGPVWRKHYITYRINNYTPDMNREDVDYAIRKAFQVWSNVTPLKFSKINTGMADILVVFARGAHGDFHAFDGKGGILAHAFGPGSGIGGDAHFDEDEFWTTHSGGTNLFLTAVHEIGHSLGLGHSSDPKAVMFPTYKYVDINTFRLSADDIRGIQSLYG
# assay notes: Assay for inhibitory activities on MMPs (fluorogenic peptide substrate), MMP-12
pIC50: −log10 of the molar value.

compound	study target	pIC50
O=C(O)[C@@H](CC1CCCCC1)NS(=O)(=O)c1ccc(-c2ccc(C#Cc3ccc4ccccc4c3)cc2)cc1	MMP-12 (Homo sapiens)	< 5.00
CC(C)C[C@@H](NS(=O)(=O)c1ccc(-c2ccc(NC(=O)c3ccc4ccccc4c3)cc2)cc1)C(=O)O	MMP-12 (Homo sapiens)	< 5.00
O=C(/C=C/c1ccccc1)Nc1ccc(-c2ccc(S(=O)(=O)N[C@H](Cc3ccccc3)C(=O)O)cc2)cc1	MMP-12 (Homo sapiens)	< 5.00
COc1ccc2cc(C#Cc3ccc(-c4ccc(S(=O)(=O)N[C@@H](Cc5ccccc5)C(=O)O)cc4)cc3)ccc2c1	MMP-12 (Homo sapiens)	< 5.00
CC(C)C[C@H](NS(=O)(=O)c1ccc(-c2ccc(C#Cc3ccc4ccccc4c3)cc2)cc1)C(=O)O	MMP-12 (Homo sapiens)	7.69
C[C@@H](NS(=O)(=O)c1ccc(-c2ccc(NC(=O)c3ccc4ccccc4c3)cc2)cc1)C(=O)O	MMP-12 (Homo sapiens)	< 5.00
COc1ccc2cc(C#Cc3ccc(-c4ccc(S(=O)(=O)NC(Cc5ccc(F)cc5)C(=O)O)cc4)cc3)ccc2c1 (stereo not drawn)	MMP-12 (Homo sapiens)	< 5.00
COc1ccc(C(=O)Nc2ccc(-c3ccc(S(=O)(=O)N[C@H](C)C(=O)O)cc3)cc2)cc1	MMP-12 (Homo sapiens)	6.10
CCC(C)[C@H](NS(=O)(=O)c1ccc(-c2ccc(NC(=O)c3ccc4ccccc4c3)cc2)cc1)C(=O)O (stereo partly drawn)	MMP-12 (Homo sapiens)	7.17
